- assay_comment: yeast display, Sf9 membrane polyspecificity reagent, FACS + sequencing; frameworks hold sequencing errors
parameter: polyreactivity (PSR sort gate)

>>> measurement("QVQLVESGGGLVQAGGSLRLSCAASGNTLYTNAMGWYRQAPGKERELVAVISRGGSTYYADSVKGRFTISRDNAKNTVYLQMNSLKPEDTAVYYCATYGSSWSRAYGYWGQGTQVTVSS")
"high polyreactivity"
>>> measurement("QLQLVESGGGLVQAGGSLRLSCAASGSTFSPYAMGWYRQAPGKERDLVAGITSSGGDTYYADSVKGRFTISRDNAKNTVYLQMNSLKPEDSAVYYCAADWWVLGQLWFDYWGQGTQVTVSS")
"low polyreactivity"
>>> measurement("QVQLVESGGGLVQAGGSLRLSCAASGSTFPWYVMGWYRQAPGKERELVAAISWSGGRTYYADSVKGRFTISRDNAKNTVYLQMNSLKPEDTAVYYCAADLSYWRGGHSRNYWGQGTQVTVSS")
"low polyreactivity"
>>> measurement("QVQLVESGGGLVQAGGSLRLSCAASGRIFVYNAMGWYRQAPGKERELVATISSGGSTNYADSVKGRFTISRDNAKNTVYLQMNSLKPEDTAVYYCAARFYVSNSRISARNYWGQGTQVTVSS")
"high polyreactivity"
>>> measurement("QVQLVESGGGLVQAGGSLRLSCAASGRIFTSYAKGWYRQAPGKERELVAAISRSGGSTYYADSVKGRFTISRDNAKNTVYLQMHSLKPEDTALYYCAKARVVAGYDYWGQGTQVTVSS")
"high polyreactivity"
>>> measurement("QVQLVESGGGLVQAGGSLRLSCAATGIILGPYAMGWYRPAPGKERELVAAISWRGGSTYNADSVKGRFTISRDNAKNTVYLQMNSLKPEDTAVYYCATASRTSRTGWAGYYCGQGTQVTVSS")
"high polyreactivity"
>>> measurement("QVQLVESGGGLVQAGGSLRLSCAASGLTFSRYARGWYRQAPGKERELVAAISGSGGSTYYADSVKGRFTISRDNAKNTVYLQMNSLKPEDTAVYYCNKYRATNSARDYWGQGTQVTVSS")
"high polyreactivity"
